Target chain: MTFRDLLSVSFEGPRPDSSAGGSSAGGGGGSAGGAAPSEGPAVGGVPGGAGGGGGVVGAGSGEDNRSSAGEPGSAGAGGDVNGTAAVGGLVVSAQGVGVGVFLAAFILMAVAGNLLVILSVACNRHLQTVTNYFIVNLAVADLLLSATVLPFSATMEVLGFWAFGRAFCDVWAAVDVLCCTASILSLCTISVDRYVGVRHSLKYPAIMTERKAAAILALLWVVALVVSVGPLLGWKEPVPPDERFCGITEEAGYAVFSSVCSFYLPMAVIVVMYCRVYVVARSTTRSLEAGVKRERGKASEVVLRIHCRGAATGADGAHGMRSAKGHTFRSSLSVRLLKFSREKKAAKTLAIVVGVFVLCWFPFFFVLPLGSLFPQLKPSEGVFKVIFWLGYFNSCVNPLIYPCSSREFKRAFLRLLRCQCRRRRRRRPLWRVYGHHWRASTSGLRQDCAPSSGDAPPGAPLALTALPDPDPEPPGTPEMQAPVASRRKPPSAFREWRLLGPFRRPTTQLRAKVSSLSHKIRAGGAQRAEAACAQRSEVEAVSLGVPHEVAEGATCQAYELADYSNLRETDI
reported property: pKi
To interpret pKi, take it as minus log10 of a concentration measured in moles per litre.

Q) Item under review: Cl.Cl.c1ccc2c(C3CCN(CCCCCN4CCCCC4)CC3)c[nH]c2c1 . Reported pKi?
A) 7.43

---

Quick record: Ki, Alpha-1A adrenergic receptor (Rattus norvegicus, UniProt P43140).
Respond with a number, then the unit of measure.

Recorded results for 2 compounds are shown here.
{"compound": "Fc1ccc2[nH]cc(C3CCN(CCCN4CCCCC4)CC3)c2c1", "target or test system": "Alpha-1A adrenergic receptor (Rattus norvegicus, UniProt P43140)", "Ki": "690 nM"}
{"compound": "c1ccc2c(C3CCN(CCCN4CCCCC4)CC3)coc2c1", "target or test system": "Alpha-1A adrenergic receptor (Rattus norvegicus, UniProt P43140)", "Ki": "60 nM"}

Q) Requested read-out: Ki. Entry: Oc1nc2ccccc2n1C1CCN(CCCN2CCCCC2)CC1
A) 900 nM

---

target or test system: Alpha-1B adrenergic receptor (Rattus norvegicus)
Sequence (P15823 whole entry): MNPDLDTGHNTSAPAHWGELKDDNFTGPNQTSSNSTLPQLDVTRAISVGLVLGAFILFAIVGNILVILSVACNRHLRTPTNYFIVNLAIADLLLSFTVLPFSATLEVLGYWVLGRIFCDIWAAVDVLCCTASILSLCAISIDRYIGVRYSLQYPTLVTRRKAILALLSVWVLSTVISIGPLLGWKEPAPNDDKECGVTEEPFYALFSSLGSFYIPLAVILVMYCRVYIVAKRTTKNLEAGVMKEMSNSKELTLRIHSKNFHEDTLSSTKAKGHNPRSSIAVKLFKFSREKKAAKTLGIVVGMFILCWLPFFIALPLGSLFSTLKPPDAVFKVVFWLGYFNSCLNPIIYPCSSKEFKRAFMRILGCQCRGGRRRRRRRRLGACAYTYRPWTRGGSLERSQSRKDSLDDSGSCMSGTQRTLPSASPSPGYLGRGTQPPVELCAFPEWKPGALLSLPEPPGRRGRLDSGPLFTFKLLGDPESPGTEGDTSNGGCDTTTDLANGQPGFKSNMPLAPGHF
pKi: −log10 of the molar value.
Record criterion met whenever pKi is at 7 or higher; record criterion not met when lower.

Below, 3 molecules whose answers are already recorded.
{"compound": "c1ccc(CC2CCN(CCCN3CCCCC3)CC2)cc1", "class assignment": "criterion not met"}
{"compound": "Fc1ccc2[nH]cc(C3CCN(CCCN4CCCCC4)CC3)c2c1", "class assignment": "criterion met"}
{"compound": "c1ccc2c(C3CCN(CCCN4CCCCC4)CC3)coc2c1", "class assignment": "criterion met"}

Could you now consider this next molecule?
Q) Is reported pKi greater than or equal to 7 here: Cn1cc(C2CCN(CCCN3CCCCC3)CC2)c2ccccc21
A) criterion met
